Target: human mAChR M4 (Homo sapiens, UniProt P08173)
Construct: expressed in transfected cells; host or cells: CHO-K1 (American Type Culture Collection), stably expressing hM4 and Gqi5
Sequence (P08173 whole entry): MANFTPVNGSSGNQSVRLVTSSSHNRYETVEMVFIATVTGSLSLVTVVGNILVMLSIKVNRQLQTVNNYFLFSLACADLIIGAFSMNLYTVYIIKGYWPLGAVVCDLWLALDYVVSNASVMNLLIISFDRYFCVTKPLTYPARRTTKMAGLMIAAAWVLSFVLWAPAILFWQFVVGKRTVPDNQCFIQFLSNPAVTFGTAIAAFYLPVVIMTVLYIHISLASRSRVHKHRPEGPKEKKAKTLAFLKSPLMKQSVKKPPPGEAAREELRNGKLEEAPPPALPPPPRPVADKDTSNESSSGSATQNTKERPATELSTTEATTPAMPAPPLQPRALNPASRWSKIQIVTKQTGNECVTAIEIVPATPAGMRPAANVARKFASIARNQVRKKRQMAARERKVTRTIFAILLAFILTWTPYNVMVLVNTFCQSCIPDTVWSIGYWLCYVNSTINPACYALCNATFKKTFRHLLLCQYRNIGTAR
Assay: mAChR M4 cell-based functional assay: calcium mobilization (Fluo-4, FDSS), potentiation of EC20 acetylcholine response in hM4-Gqi5 CHO-K1 cells
Details: CHO-K1, % ACh maximum at 30 μM; human M4
measurement_label: Emax at 30 µM (%)

[[record]]
smiles_entry = "[2H]C1([2H])Cc2ncc(Nc3ccccc3F)cc2C([2H])([2H])N1c1nn2c(=O)ccnc2cc1C"
measurement_label = "Emax at 30 µM"
reported = 84

[[record]]
smiles_entry = "COCc1cc(=O)n2nc(N3CCc4ncc(-c5sccc5OC)cc4C3)c(C)cc2n1"
measurement_label = "Emax at 30 µM"
reported = 95

[[record]]
smiles_entry = "Cc1cc2nccc(=O)n2nc1N1CCc2ncc(-c3cn(C)nc3C(F)(F)F)cc2C1"
measurement_label = "Emax at 30 µM"
reported = 82

[[record]]
smiles_entry = "Cc1cc(=O)n2nc(N3CCc4ncc(-c5cnn(C6CC6)c5)cc4C3)c(C)c(C)c2n1"
measurement_label = "Emax at 30 µM"
reported = 79


====

Target: human mAChR M4 (Homo sapiens)
Construct: expressed in transfected cells; host or cells: CHO-K1 (American Type Culture Collection), stably expressing hM4 and Gqi5
Assay: mAChR M4 cell-based functional assay: calcium mobilization (Fluo-4, FDSS), potentiation of EC20 acetylcholine response in hM4-Gqi5 CHO-K1 cells
Details: CHO-K1, % ACh maximum at 30 μM; human M4
measurement_label: Emax at 30 µM (%)

[[record]]
compound = "COCc1cc(=O)n2nc(N3CCc4ncc(-c5cnccn5)cc4C3)c(C)c(C)c2n1 [Compound 1-261]"
reported = 94

[[record]]
compound = "Cc1cc2nccc(=O)n2nc1N1CCc2ncc(Nc3cc(C(F)(F)F)ncc3F)cc2C1 [Compound 2-152]"
reported = 88

[[record]]
compound = "COc1ccsc1-c1cnc2c(c1)CN(c1nn3c(=O)cc(C)nc3cc1C)CC2 [Compound 1-298]"
reported = 85

[[record]]
compound = "Cc1nc2c(C)c(C)c(N3CCc4ncc(N5CCCn6nccc65)cc4C3)nn2c(=O)c1F [Compound 2-12]"
reported = 128

[[record]]
compound = "Cc1ccc(-c2cnc3c(c2)CN(c2nn4c(=O)ccnc4c(C)c2C)CC3)cc1F [Compound 1-143]"
reported = 102

[[record]]
compound = "Cc1cc(=O)n2nc(N3CCc4ncc(-c5cccnc5)cc4C3)c(C)cc2n1 [Compound 1-290]"
reported = 90

[[record]]
compound = "Cc1cc2nccc(=O)n2nc1N1CCc2ncc(Nc3c(F)ccnc3C)cc2C1 [Compound 2-114]"
reported = 82

[[record]]
compound = "Cc1cc(C(=O)O)ncc1-c1cnc2c(c1)CN(c1nn3c(=O)ccnc3cc1C)CC2 [Compound 1-406]"
reported = 86

[[record]]
compound = "Cc1cc2nc(C(=O)NCc3cncs3)cc(=O)n2nc1N1CCc2ncc(C(F)(F)F)cc2C1 [Compound 1-42]"
reported = 87

[[record]]
compound = "Cc1cc(=O)n2nc(N3CCc4ncc(N5CC6CC5CO6)cc4C3)c(C)c(C)c2n1 (stereo not shown) [Compound 2-37]"
reported = 81


[I] COCc1cc(=O)n2nc(N3CCc4ncc(C(F)(F)F)cc4C3)c(C)c(C)c2n1 [Compound 1-109]
[II] Cc1c(N2CCc3ncc(OCCN4CCOC4=O)cc3C2)nn2c(=O)ccnc2c1C [Compound 3-4]
Which gives the smaller Emax at 30 µM number: I or II ? Answer by quoting the chosen item's label.
II
